Overview of reported Relative cAMP EC50 across a group of binders:
# measured target: T1, human GIP receptor (human) (UniProt P48546)
# T1 sequence (looked up): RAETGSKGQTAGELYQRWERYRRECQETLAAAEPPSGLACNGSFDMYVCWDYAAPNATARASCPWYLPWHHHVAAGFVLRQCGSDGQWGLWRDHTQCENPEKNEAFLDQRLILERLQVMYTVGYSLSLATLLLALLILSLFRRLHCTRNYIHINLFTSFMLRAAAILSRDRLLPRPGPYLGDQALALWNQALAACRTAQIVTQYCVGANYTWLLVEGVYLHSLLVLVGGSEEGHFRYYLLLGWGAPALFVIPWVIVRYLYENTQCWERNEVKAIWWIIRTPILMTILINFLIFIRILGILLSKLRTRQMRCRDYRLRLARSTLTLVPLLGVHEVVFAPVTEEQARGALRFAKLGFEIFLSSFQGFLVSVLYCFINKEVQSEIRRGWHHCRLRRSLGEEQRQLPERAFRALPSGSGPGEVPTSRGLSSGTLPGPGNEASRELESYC
# assay explanation: cell-based or functional assay
Starred links: 1 amine or outer side, 2 acyl side, 3 side chain; linkers in the order of their positions; H or OH if unused. Non-standard residues stand in square brackets, D forms with d. Groups on a side chain read outwards from the residue. No end group written: not given here. *: point of attachment. C20 diacid = O=C(O)CCCCCCCCCCCCCCCCCCC(=O)*; γGlu = O=C(O)[C@H](CCC(=O)[*:2])N[*:1]; αMeL = CC(C)C[C@](C)(N)C(=O)O; AEEA = NCCOCCOCC(=O)O; Aib = CC(C)(N)C(=O)O
The reply should be a number in nM, with the unit left off.

The examples below pair each entry with its known result.
binder	assay endpoint	readout number
YXQGTFTSDXSQXLDKKAQXAFIEYLLAGGPSSGAPPPSGSEE (synthetic construct; SITE 2: note = 2-Aminoisobutyric Acid; SITE 10: note = 3-(4-Pyridyl)-L-alanine; SITE 13: note = alpha-methyl-leucine; SITE 17: note = Lysine is chemically modified through conjugation of the epsilon-amino group of the Lysine side chain with (gamma-Glu)2-CO-(CH2)16-CO2H; SITE 20:) [Example 1036]	Relative cAMP EC50	0.114
YXQGTFTSDXXQXLDXKAQXQFIQXLIEGGPSSGEPPPSGGGE (not fully specified; non-natural residues, lipidated Lys, C-terminal amide; synthetic construct; SITE 2: note = 2-Aminoisobutyric Acid; SITE 10: note = 3-(4-Pyridyl)-L-alanine; SITE 11: note = alpha-methyl-L-serine; SITE 13: note = alpha-methyl-leucine; SITE 16: note = L-ornithine; SITE 17: note = Lysine is chemically modified through conjugation of the epsilon-amino group) [Example 1188]	Relative cAMP EC50	0.0914
YXQGTFTSDFSXXLDKKAQXAFIEWLLEGGXSSGAPPPSGE (synthetic construct; SITE 2: note = 2-Aminoisobutyric Acid; SITE 12: note = L-ornithine; SITE 13: note = alpha-methyl-leucine; SITE 17: note = Lysine is chemically modified through conjugation of the epsilon-amino group of the Lysine side chain with (2-[2-(2-Amino-ethoxy)-ethoxy]-acetyl)-(gamma-Glu)) [Example 104]	Relative cAMP EC50	0.251
YXQGTFTSDFSQXLDKKAQXAFIEYLIEXGESSGAPPPSGE (non-natural residues; AEEA-γGlu-C18 diacid on Lys; C-terminal amide; synthetic construct; SITE 2: note = 2-Aminoisobutyric Acid; SITE 13: note = alpha-methyl-leucine; SITE 17: note = Lysine is chemically modified through conjugation of the epsilon-amino group of the Lysine side chain with (2-[2-(2-Amino-ethoxy)-ethoxy]-acetyl)-(gamma-Glu)-CO-(CH2) 16-CO2H; SITE 20: n) [Example 233]	Relative cAMP EC50	0.0884
YXQGTFTSDXSQXLDXKAQXQFIEXLIAXGPSSGEPPPSGSEE (non-natural residues; Lys acylated AEEA-γGlu-C18 diacid; C-terminal amide; synthetic construct; SITE 2: note = 2-Aminoisobutyric Acid; SITE 10: note = 3-(4-Pyridyl)-L-alanine; SITE 13: note = alpha-methyl-leucine; SITE 16: note = L-ornithine; SITE 17: note = Lysine is chemically modified through conjugation of the epsilon-amino group of the Lysine side chain with (2-[2-(2-) [Example 1100]	Relative cAMP EC50	0.0694
Y[Aib]QGTFTSDYSI[αMeL]LDKQAAK([AEEA-AEEA-γGlu-C20 diacid])QFVEWLLA[Aib]GPSSGAPPPSEG-NH2 [Example 327]	Relative cAMP EC50	0.312

Query: Record request: Relative cAMP EC50 value, item HXQGTXTSDYSILLDKKAAXAFIEYLIEAGPSSGEPPPSEG (not fully specified; synthetic construct; SITE 2: note = 2-Aminoisobutyric Acid; SITE 6: note = alpha-methyl-2-fluoro-L-phenylalanine; SITE 17: note = Lysine is chemically modified through conjugation of the epsilon-amino group of the Lysine side chain with (2-[2-(2-Amino-ethoxy)-ethoxy]-acetyl)-(gamma-Glu)-CO-(CH2) 18-) [Example 298]
Reply: 0.138
